B1: TPR 5TU (parent)
chain: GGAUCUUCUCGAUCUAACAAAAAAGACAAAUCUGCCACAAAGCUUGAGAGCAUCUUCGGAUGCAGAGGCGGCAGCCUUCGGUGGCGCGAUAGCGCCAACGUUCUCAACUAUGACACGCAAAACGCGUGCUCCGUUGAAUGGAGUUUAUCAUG

Variants of: B1
Assay: polymerase ribozyme fitness, log enrichment relative to wild type (log ratio); higher = more active; in vitro selection for triplet polymerase activity
Fewer inactive variants are shown than the library holds.
Readout name: polymerase ribozyme fitness (log ratio)
Numbers only.

Previously resolved entries follow.
C51U C95U U104G U144A : -2.33
A17G C96U : 0.456
C14U C54U G84A G133U : -3.87

Record polymerase ribozyme fitness (log ratio) per entry; entries follow.
1. A41U U144G G152A
2. A52U U55A
3. A21G A98U C129A U144A
4. U56A C103U

1: -1.09; 2: -1.7; 3: -3.61; 4: -0.0268

Source: the RNAGym collection of RNA variant scans (doi:10.1073/pnas.2313332121)
